System: T-Rex 293 cell line SC3 cells lacking increased expression of androgen receptor protein
ASSAY EXPLANATION: Cellular growth inhibition, T-Rex 293 SC3 cells without doxycycline, CellTiter-Glo
Format: cell-based
STUDY CONDITIONS: 72 h, T-Rex 293 SC3 cells not exposed to doxycycline, CellTiter-Glo 2.0
ENDPOINT: GI50

Cc1sc2c(c1C)C(c1ccc(O[C@@H]3COC4(CCN(c5ncc(C(=O)N[C@H]6C(C)(C)[C@H](Oc7ccc(C#N)c(Cl)c7)C6(C)C)cn5)C4)C3)cc1)=N[C@@H](Cc1ncco1)c1nnc(C)n1-2 (some centres unmarked) [Compound I-185]	< 500 nM

Kindly consider the entry below.
q: Given COCC[C@@H]1N=C(c2ccc(CC3CC4(CCN(c5ccc(C(=O)N[C@H]6C(C)(C)[C@H](Oc7ccc(C#N)c(Cl)c7)C6(C)C)cn5)CC4)C3)cc2)c2c(sc(C)c2C)-n2c(C)nnc21 [Compound I-599] , report its GI50 on T-Rex 293 cell line SC3 cells lacking increased expression of androgen receptor protein.
a: > 3000 nM

* * *

Test system: T-Rex 293 cell line SC cells lacking increased expression of progesterone receptor isoform B protein
ASSAY EXPLANATION: Cellular growth inhibition, T-Rex 293 SC cells without doxycycline, Example 45
Format: cell-based
STUDY CONDITIONS: T-Rex 293 SC cells not exposed to doxycycline, 72 hours treatment, CellTiter-Glo 2.0
ENDPOINT: GI50

See these solved cases before continuing.
Cc1sc2c(c1C)C(c1ccc(CCCOC3CCN(c4ncc(C(=O)N[C@H]5C(C)(C)[C@H](Oc6ccc(C#N)c(Cl)c6)C5(C)C)cn4)CC3)cc1)=N[C@@H](C)c1nnc(C)n1-2 [Compound I-228]	0.5 to 1.5 µM
CCNC(=O)C[C@@H]1N=C(c2cccc(OCCOC3CCN(c4ncc(C(=O)N[C@H]5C(C)(C)[C@H](Oc6ccc(C#N)c(Cl)c6)C5(C)C)cn4)CC3)c2)c2c(sc(C)c2C)-n2c(C)nnc21 [Compound I-46]	0.5 to 1.5 µM

Kindly consider the entry below.
q: Recall and state the measured GI50 for Cc1sc2c(c1C)C(c1ccc(OC3CC4(CCN(c5ncc(C(=O)N[C@H]6C(C)(C)[C@H](Oc7ccc(C#N)c(Cl)c7)C6(C)C)cn5)CC4)C3)cc1)=N[C@@H](Cc1ncco1)c1nnc(C)n1-2 [Compound I-49] .
a: 0.5 to 1.5 µM

* * *

Test system: T-Rex 293 cell line SC3 cells lacking increased expression of androgen receptor protein
ASSAY EXPLANATION: Cellular growth inhibition, T-Rex 293 SC3 cells without doxycycline, CellTiter-Glo
Format: cell-based
STUDY CONDITIONS: 72 h, T-Rex 293 SC3 cells not exposed to doxycycline, CellTiter-Glo 2.0
ENDPOINT: GI50

Quick one: give me GI50 for each item below, same order please.
1. Cc1sc2c(c1C)C(c1ccc(C#CC3CC4(CCN(c5ncc(C(=O)N[C@H]6C(C)(C)[C@H](Oc7ccc(C#N)c(Cl)c7)C6(C)C)cn5)CC4)C3)cc1)=N[C@@H](Cc1ncco1)c1nnc(C)n1-2 [Compound I-267]
2. COC[C@@H]1N=C(c2ccc(OC3CC4(CCN(c5ncc(C(=O)N[C@H]6C(C)(C)[C@H](Oc7ccc(C#N)c(Cl)c7)C6(C)C)cn5)CC4)C3)cc2)c2c(sc(C)c2C)-n2c(C)nnc21 [Compound I-565]
3. Cc1sc2c(c1C)C(c1ccc([C@H]3C[C@H](C4CCN(c5ncc(C(=O)N[C@H]6C(C)(C)[C@H](Oc7ccc(C#N)c(Cl)c7)C6(C)C)cn5)CC4)C3)cc1)=N[C@@H](Cc1ncco1)c1nnc(C)n1-2 [Compound I-399]

a:
["< 500 nM", "> 3000 nM", "> 3000 nM"]

Quick one: give me GI50 for each item below, same order please.
1. Cc1sc2c(c1C)C(c1ccc(-c3cn(C4CCN(c5ncc(C(=O)N[C@H]6C(C)(C)[C@H](Oc7ccc(C#N)c(Cl)c7)C6(C)C)cn5)CC4)cn3)cc1)=N[C@@H](Cc1ncco1)c1nnc(C)n1-2 [Compound I-484]
2. Cc1sc2c(c1C)C(c1ccc(N3CC4(CCN(c5ncc(C(=O)N[C@H]6C(C)(C)[C@H](Oc7ccc(C#N)c(Cl)c7)C6(C)C)cn5)CC4)C3)cc1)=NC(Cc1ncco1)c1nnc(C)n1-2 (stereo partly drawn) [Compound I-625]

a:
1: 500 to 1500 nM; 2: > 3000 nM

Quick one: give me GI50 for each item below, same order please.
1. Cc1sc2c(c1C)C(c1ccc(CCO[C@H]3CCCN(c4ncc(C(=O)N[C@H]5C(C)(C)[C@H](Oc6ccc(C#N)c(Cl)c6)C5(C)C)cn4)C3)cc1)=N[C@@H](C)c1nnc(C)n1-2 [Compound I-354]
2. Cc1sc2c(c1C)C(c1ccc(C[C@H]3CCCN(c4ncc(C(=O)N[C@H]5C(C)(C)[C@H](Oc6ccc(C#N)c(Cl)c6)C5(C)C)cn4)C3)cc1)=N[C@@H](Cc1ncco1)c1nnc(C)n1-2 [Compound I-297]
3. Cc1sc2c(c1C)C(c1ccc(N[C@H]3CC[C@@H](Nc4ncc(C(=O)N[C@H]5C(C)(C)[C@H](Oc6ccc(C#N)c(Cl)c6)C5(C)C)cn4)CC3)cc1)=N[C@@H](Cc1ncco1)c1nnc(C)n1-2 [Compound I-623]
4. Cc1sc2c(c1C)C(c1ccc(Cl)cc1)=N[C@@H](CC(=O)NCCOCCOCCOCCOCCOCCOCCN(C)c1ncc(C(=O)N[C@H]3C(C)(C)[C@H](Oc4ccc(C#N)c(Cl)c4)C3(C)C)cn1)c1nnc(C)n1-2 [Compound I-4]

a:
["> 3000 nM", "500 to 1500 nM", "< 500 nM", "> 3000 nM"]

Cited source for all entries: patent US20260062422A1
